Form field: IC50 (one value per entry).
biological target: human GPR84 receptor (Homo sapiens, UniProt Q9NQS5); test: Gαi biosensor BRET assay in HEK293 cells (antagonism of ZQ-16); conditions: HEK293 cells, antagonism of 200 nmol/L ZQ-16
Sequence (Q9NQS5 whole entry): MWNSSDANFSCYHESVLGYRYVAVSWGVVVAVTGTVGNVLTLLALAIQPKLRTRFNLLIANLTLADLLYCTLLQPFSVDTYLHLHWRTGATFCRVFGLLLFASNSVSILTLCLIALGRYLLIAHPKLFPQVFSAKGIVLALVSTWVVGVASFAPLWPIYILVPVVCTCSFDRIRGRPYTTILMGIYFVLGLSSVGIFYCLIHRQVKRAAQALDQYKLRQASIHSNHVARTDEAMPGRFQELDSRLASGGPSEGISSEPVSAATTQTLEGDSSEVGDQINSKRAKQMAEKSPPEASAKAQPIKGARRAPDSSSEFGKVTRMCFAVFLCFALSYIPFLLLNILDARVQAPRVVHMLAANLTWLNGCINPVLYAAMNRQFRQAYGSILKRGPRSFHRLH
ENDPOINT LABEL: IC50

[
  {
    "COMPOUND": "COC(c1cccc(C#CC2CC2)c1)c1cn(CC2CCCCO2)nn1 (centres unmarked) [Compound I-490]",
    "RESULT": "0.3 to 1 µM"
  },
  {
    "COMPOUND": "CCc1cc(C#CC2CC2)ccc1-c1cn(CC2CCCCO2)nn1 (centres unmarked) [Compound I-865]",
    "RESULT": "0.3 to 1 µM"
  },
  {
    "COMPOUND": "CO[C@H](c1cn(C[C@H]2CCCCO2)nn1)c1cc(C#CC2CC2)ccc1C [Compound I-511]",
    "RESULT": "≤ 0.3 µM"
  },
  {
    "COMPOUND": "Cc1cc(N2CC(C)(N(C)Cc3ccccc3)C2)ccc1-c1cn(CC2CCCCO2)nn1 (centres unmarked) [Compound I-553]",
    "RESULT": "0.3 to 1 µM"
  },
  {
    "COMPOUND": "CC(C)Oc1cc(C#CC2CC2)cnc1-c1cn(Cc2ncccn2)nn1 [Compound I-502]",
    "RESULT": "1 to 3 µM"
  },
  {
    "COMPOUND": "Cc1cc(C#CCN2CC(C)(C)C2)cnc1-c1cn(CC2OCC(C)(C)CO2)nn1 [Compound I-596]",
    "RESULT": "0.3 to 1 µM"
  },
  {
    "COMPOUND": "CC(C)c1cc(C#CC2CC2)ccc1-c1cn(CC2CCCCO2)nn1 (centres unmarked) [Compound I-88]",
    "RESULT": "1 to 3 µM"
  },
  {
    "COMPOUND": "Cc1cc(N2CC(C)(CNc3ccccn3)C2)ccc1-c1cn(CC2CCCCO2)nn1 (centres unmarked) [Compound I-464]",
    "RESULT": "0.3 to 1 µM"
  }
]
